- ASSAY PROCEDURE: Volume of distribution at steady state in Sprague-Dawley rat at 5 mg/kg, iv
- Format: ADME, organism-based
- Set-up: dose 5 mg/kg, route intravenous
- ASSAY SETUP: in vivo, read-out: Vdss
OUTCOME MEASURE: Vd

IN: Suppose we examine the compound CC(C)(C[C@@](O)(Cc1cc2ccncc2[nH]1)C(F)(F)F)c1cc(F)ccc1O ; what Vd value has been reported?
OUT: 7.6 L/kg

IN: And then COc1ccc(F)cc1C(C)(C)C[C@@](O)(Cc1cc2ccncc2[nH]1)C(F)(F)F , what is it?
OUT: 8.7 L/kg

###

- ASSAY PROCEDURE: Tmax in Sprague-Dawley rat at 30 mg/kg, po
- Type: ADME, organism-based
- Set-up: dose 30 mg/kg, route oral
- ASSAY SETUP: in vivo
OUTCOME MEASURE: Tmax (h)
Kindly answer with a numeric value in h, unit omitted.

IN: Suppose we examine the compound COc1ccc(F)cc1C(C)(C)C[C@@](O)(Cc1cc2ccncc2[nH]1)C(F)(F)F ; what Tmax value has been reported?
OUT: 2

###

Listed below: IC50 values for each entry.
- STUDY TARGET: UniProt:P04150
- ASSAY PROCEDURE: Transactivation activity at glucocorticoid receptor in human HeLa cells transfected with luciferase gene linked to MMTV promoter by luciferase assay
- Assay type: cell-based
Kindly answer with a numeric value in nM, unit omitted.

Use the examples below as a reference point.
> print(dat)
                                   compound   u  result.value
1  CC(C)(C[C@@](O)(Cc1cc2cnccc2[nH]1)C(F)(F)F)c1cc(F)ccc1O  nM            56
2  CC(C)(C[C@@](O)(Cc1cc2ccncc2[nH]1)C(F)(F)F)c1cc(F)ccc1O  nM            80
3  COc1ccc(F)cc1C(C)(C)C[C@@](O)(Cc1cc2ccncc2[nH]1)C(F)(F)F  nM            20

IN: Suppose we examine the compound COc1ccc(F)cc1C(C)(C)C[C@@](O)(Cc1cc2cnccc2[nH]1)C(F)(F)F ; what IC50 value has been reported?
OUT: 22

IN: And then CC(C)(CC(O)(Cc1cc2ccncc2[nH]1)C(F)(F)F)c1cc(-c2ccccc2)ccc1O (stereo unspecified) , what is it?
OUT: 47

###

- ASSAY PROCEDURE: Oral bioavailability in Sprague-Dawley rat at 30 mg/kg
- Format: ADME, organism-based
- ASSAY SETUP: Sprague-Dawley, in vivo
OUTCOME MEASURE: bioavailability (%)
Kindly answer with a numeric value in %, unit omitted.

> print(dat)
                           smiles.structure  result.value
1  COc1ccc(F)cc1C(C)(C)C[C@@](O)(Cc1cc2ccncc2[nH]1)C(F)(F)F            21

IN: Suppose we examine the compound COc1ccc(-c2cncnc2)cc1C(C)(C)C[C@@](O)(Cc1cc2ccncc2[nH]1)C(F)(F)F ; what bioavailability value has been reported?
OUT: 97

###

- STUDY TARGET: Glucocorticoid receptor (Homo sapiens)
- Sequence (P04150 whole entry): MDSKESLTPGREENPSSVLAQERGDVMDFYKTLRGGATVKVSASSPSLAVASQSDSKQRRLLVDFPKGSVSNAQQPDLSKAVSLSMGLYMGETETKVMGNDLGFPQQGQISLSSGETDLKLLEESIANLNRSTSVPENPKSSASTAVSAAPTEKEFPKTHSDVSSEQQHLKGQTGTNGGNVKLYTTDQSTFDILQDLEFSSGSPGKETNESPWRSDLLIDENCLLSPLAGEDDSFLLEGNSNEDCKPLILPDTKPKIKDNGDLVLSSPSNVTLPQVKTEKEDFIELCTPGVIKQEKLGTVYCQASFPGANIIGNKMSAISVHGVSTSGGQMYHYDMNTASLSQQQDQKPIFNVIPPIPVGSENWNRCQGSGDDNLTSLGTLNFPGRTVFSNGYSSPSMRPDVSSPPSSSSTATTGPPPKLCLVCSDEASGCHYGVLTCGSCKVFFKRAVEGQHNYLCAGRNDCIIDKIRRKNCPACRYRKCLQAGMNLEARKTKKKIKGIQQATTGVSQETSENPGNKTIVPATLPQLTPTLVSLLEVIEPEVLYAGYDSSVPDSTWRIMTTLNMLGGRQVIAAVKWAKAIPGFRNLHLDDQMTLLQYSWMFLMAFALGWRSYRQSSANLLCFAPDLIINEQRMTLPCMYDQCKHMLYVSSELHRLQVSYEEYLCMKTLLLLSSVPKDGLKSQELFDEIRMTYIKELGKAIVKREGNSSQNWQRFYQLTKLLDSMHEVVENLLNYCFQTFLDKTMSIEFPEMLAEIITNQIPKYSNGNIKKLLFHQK
- ASSAY PROCEDURE: Transactivation activity at glucocorticoid receptor in HFF assessed as induction of aromatase activity after 18 to 24 hrs by ELISA
Listed below: EC50 values for each entry.

Use the examples below as a reference point.
> print(dat)
                                   molecule                            study.target  result.value
1  COc1ccc(F)cc1C(C)(C)C[C@@](O)(Cc1cc2ccncc2[nH]1)C(F)(F)F  Glucocorticoid receptor (Homo sapiens)         10 nM
2  CC(C)(CC(O)(Cc1cc2ccncc2[nH]1)C(F)(F)F)c1cccc(F)c1 (configuration not stated)  Glucocorticoid receptor (Homo sapiens)     > 2000 nM
3  COc1ccc(-c2cncnc2)cc1C(C)(C)C[C@@](O)(Cc1cc2ccncc2[nH]1)C(F)(F)F  Glucocorticoid receptor (Homo sapiens)     > 2000 nM
4  COc1ccc(-c2ccccc2)cc1C(C)(C)CC(O)(Cc1cc2ccncc2[nH]1)C(F)(F)F (configuration not stated)  Glucocorticoid receptor (Homo sapiens)         69 nM
5  CC(C)(CC(O)(Cc1cc2ccncc2[nH]1)C(F)(F)F)c1cc(Cl)cc2c1OCC2 (configuration not stated)  Glucocorticoid receptor (Homo sapiens)        120 nM

IN: Suppose we examine the molecule CC(C)(CC(O)(Cc1cc2ccncc2[nH]1)C(F)(F)F)c1ccccc1 (configuration not stated) ; what EC50 value has been reported?
OUT: > 2000 nM

IN: And then CC(C)(C[C@@](O)(Cc1cc2ccncc2[nH]1)C(F)(F)F)c1cc(F)ccc1O , what is it?
OUT: 30 nM

IN: And then CC(C)(CC(O)(Cc1cc2ccncc2[nH]1)C(F)(F)F)c1cc(-c2ccccc2)ccc1O (configuration not stated) , what is it?
OUT: 45 nM

IN: And then CC(C)(CC(O)(Cc1cc2ccncc2[nH]1)C(F)(F)F)c1cccc2c1OCC2 (configuration not stated) , what is it?
OUT: 30 nM

meta.source: ChEMBL document CHEMBL1250518
